human MCH-1R (Homo sapiens): recorded IC50 for assorted compounds
Where a SMILES comes first, the peptide text is derived from it. Bridges are numbered along the chain shown (N, C = ends). [ ]: non-standard residue; d: D form. The star is where a group is joined. Pentanoyl(5-guanidino) = NC(N)=NCCCCC(=O)*; Nle = CCCC[C@H](N)C(=O)O; Abu = CC[C@H](N)C(=O)O; Ava = NCCCCC(=O)O
Write the number in nM without appending the unit.

[
  {
    "compound": "CC[C@@H]1NC(=O)[C@@H](NC(=O)CCCCNC(=N)N)CSSC[C@@H](C(N)=O)NC(=O)CCCCNC(=O)CCCCNC(=O)[C@H](Cc2ccc(O)cc2)NC(=O)[C@H](C(C)C)NC(=O)[C@H](CCCNC(=N)N)NC(=O)CNC(=O)[C@H](CC(C)C)NC1=O [SEQ. ID. NO. 17] ({Pentanoyl(5-guanidino)}-C[Abu]LGRVY[Ava][Ava]C-NH2; disulfide 1-10; C-terminus assumed)",
    "assayed-target": "human MCH-1R (Homo sapiens)",
    "endpoint-result": 830
  },
  {
    "compound": "CSCC[C@@H]1NC(=O)[C@@H](NC(=O)CCCCNC(=N)N)CSSC[C@@H](C(N)=O)NC(=O)CCCCNC(=O)CCCCNC(=O)[C@H](Cc2ccc(O)cc2)NC(=O)[C@H](C)NC(=O)[C@H](CCCNC(=N)N)NC(=O)CNC(=O)[C@H](CC(C)C)NC1=O [SEQ. ID. NO. 20] ({Pentanoyl(5-guanidino)}-CMLGRAY[Ava][Ava]C-NH2; disulfide 1-10; C-terminus assumed)",
    "assayed-target": "human MCH-1R (Homo sapiens)",
    "endpoint-result": 29
  }
]

## Input Fill in the blank: the reported IC50 of CCCC[C@@H]1NC(=O)[C@@H](NC(=O)CCCCNC(=N)N)CSSC[C@@H](C(N)=O)NC(=O)CCCCNC(=O)CCCCNC(=O)[C@H](Cc2ccc(O)cc2)NC(=O)[C@H](C(C)C)NC(=O)[C@H](CCCNC(=N)N)NC(=O)CNC(=O)[C@H](CC(C)C)NC1=O [SEQ. ID. NO. 16] ({Pentanoyl(5-guanidino)}-C[Nle]LGRVY[Ava][Ava]C-NH2; disulfide 1-10; C-terminus assumed) is ____.
## Output 11

---

Where a SMILES comes first, the peptide text is derived from it. Bridges are numbered along the chain shown (N, C = ends). [ ]: non-standard residue; d: D form. dNle = CCCC[C@@H](N)C(=O)O; Ava = NCCCCC(=O)O
human MCH-1R (Homo sapiens): recorded pIC50 for assorted compounds
Remember, pIC50 is on a log scale: it is -log10 of the molar concentration.

[
  {
    "compound": "CCCC[C@H]1NC(=O)[C@H](CC(C)C)NC(=O)[C@H](CCSC)NC(=O)[C@@H](NC(=O)[C@H](CCCNC(=N)N)NC(C)=O)CSSC[C@@H](C(N)=O)NC(=O)CCCCNC(=O)CCCCNC(=O)[C@H](Cc2ccc(O)cc2)NC(=O)[C@H](C(C)C)NC(=O)[C@H](CCCNC(=N)N)NC1=O [SEQ. ID. NO. 26] (Ac-RCML[dNle]RVY[Ava][Ava]C-NH2; disulfide 2-11; C-terminus assumed)",
    "endpoint-result": 6.65
  }
]

// next entry
## Input Fill in the blank: the reported pIC50 of CSCC[C@@H]1NC(=O)[C@@H](NC(=O)CCCNC(=N)N)CSSC[C@@H](C(N)=O)NC(=O)CCCCNC(=O)CCCCNC(=O)[C@H](Cc2ccc(O)cc2)NC(=O)[C@H](C(C)C)NC(=O)[C@H](CCCNC(=N)N)NC(=O)CNC(=O)[C@H](CC(C)C)NC1=O [SEQ. ID. NO. 12] is ____.
## Output 8.10

---

Molecular target: human MCH-1R (Homo sapiens, UniProt Q99705)
Sequence (Q99705 whole entry): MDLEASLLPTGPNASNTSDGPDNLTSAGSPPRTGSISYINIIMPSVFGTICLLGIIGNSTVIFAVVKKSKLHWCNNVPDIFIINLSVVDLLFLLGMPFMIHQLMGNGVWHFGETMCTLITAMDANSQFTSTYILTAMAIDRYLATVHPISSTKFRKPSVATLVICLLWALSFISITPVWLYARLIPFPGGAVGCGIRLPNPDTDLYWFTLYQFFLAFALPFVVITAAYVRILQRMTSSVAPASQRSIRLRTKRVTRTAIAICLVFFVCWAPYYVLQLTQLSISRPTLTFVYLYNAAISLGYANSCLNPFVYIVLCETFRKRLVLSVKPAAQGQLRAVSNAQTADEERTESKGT
Where a SMILES comes first, the peptide text is derived from it. Bridges are numbered along the chain shown (N, C = ends). [ ]: non-standard residue; d: D form. The star is where a group is joined. Pentanoyl(5-guanidino) = NC(N)=NCCCCC(=O)*; Ava = NCCCCC(=O)O
Each entry below carries its reported pIC50.
Remember, pIC50 is on a log scale: it is -log10 of the molar concentration.

Guide cases for pIC50, answers given:
[
  {
    "compound": "CSCC[C@@H]1NC(=O)[C@@H](NC(=O)[C@@H](CCCNC(=N)N)NC(C)=O)CSSC[C@@H](C(N)=O)NC(=O)CCCCNC(=O)CCCCNC(=O)[C@H](Cc2ccc(O)cc2)NC(=O)[C@H](C(C)C)NC(=O)[C@H](CCCNC(=N)N)NC(=O)CCCCNC(=O)CCCCNC1=O [SEQ. ID. NO. 33] (Ac-[dR]CM[Ava][Ava]RVY[Ava][Ava]C-NH2; disulfide 2-11 (inferred); C-terminus assumed)",
    "pIC50": 6.87
  },
  {
    "compound": "CSCC[C@@H]1NC(=O)[C@@H](NC(=O)CCCCNC(=N)N)CSSC[C@@H](C(=O)O)NC(=O)CCCCNC(=O)CCCCNC(=O)[C@H](Cc2ccc(O)cc2)NC(=O)[C@H](C(C)C)NC(=O)[C@H](CCCNC(=N)N)NC(=O)CNC(=O)[C@H](CC(C)C)NC1=O [SEQ. ID. NO. 18]",
    "pIC50": 6.54
  },
  {
    "compound": "CSCC[C@@H]1NC(=O)[C@@H](NC(=O)[C@@H](CCCNC(=N)N)NC(C)=O)CSSC[C@@H](C(N)=O)NC(=O)[C@@H]2CCCN2C(=O)[C@H](CCCNC(=N)N)NC(=O)[C@H](Cc2ccc(O)cc2)NC(=O)[C@H](C(C)C)NC(=O)[C@H](CCCNC(=N)N)NC(=O)CCCCNC(=O)CCCCNC1=O [SEQ. ID. NO. 4] (Ac-[dR]CM[Ava][Ava]RVYRPC-NH2; disulfide 2-11 (inferred); C-terminus assumed)",
    "pIC50": 8.43
  },
  {
    "compound": "CSCC[C@@H]1NC(=O)[C@@H](NC(=O)[C@H](CCCNC(=N)N)NC(C)=O)CSSC[C@@H](C(N)=O)NC(=O)CCCCNC(=O)CCCCNC(=O)[C@H](Cc2ccc(O)cc2)NC(=O)[C@H](C(C)C)NC(=O)[C@H](CCCNC(=N)N)NC(=O)[C@H]2CCCN2C(=O)[C@H](CC(C)C)NC1=O [SEQ. ID. NO. 28] (Ac-RCML[dP]RVY[Ava][Ava]C-NH2; disulfide 2-11 (inferred); C-terminus assumed)",
    "pIC50": 6.15
  },
  {
    "compound": "CSCC[C@@H]1NC(=O)[C@@H](NC(=O)CCCCNC(=N)N)CSSC[C@@H](C(N)=O)NC(=O)CCCCNC(=O)CCCCNC(=O)[C@H](Cc2ccc(O)cc2)NC(=O)[C@H](C(C)C)NC(=O)[C@H](CCCNC(=N)N)NC(=O)CCCCNC(=O)CCCCNC1=O [SEQ. ID. NO. 32] ({Pentanoyl(5-guanidino)}-CM[Ava][Ava]RVY[Ava][Ava]C-NH2; disulfide 1-10; C-terminus assumed)",
    "pIC50": 7.21
  }
]

// next entry
## Input // map CSCC[C@@H]1NC(=O)[C@@H](NC(=O)[C@H](CCCNC(=N)N)NC(C)=O)CSSC[C@@H](C(N)=O)NC(=O)[C@@H]2CCCN2C(=O)[C@H](CCCNC(=N)N)NC(=O)[C@H](Cc2ccc(O)cc2)NC(=O)[C@H](C(C)C)NC(=O)[C@H](CCCNC(=N)N)NC(=O)CCCCNC(=O)CCCCNC1=O [SEQ. ID. NO. 3] (Ac-RCM[Ava][Ava]RVYRPC-NH2; disulfide 2-11; C-terminus assumed) to recorded pIC50 (system: human MCH-1R (Homo sapiens, UniProt Q99705))
## Output 8.43

---

Molecular target: human MCH-2R (Homo sapiens, UniProt Q969V1)
Sequence (Q969V1 whole entry): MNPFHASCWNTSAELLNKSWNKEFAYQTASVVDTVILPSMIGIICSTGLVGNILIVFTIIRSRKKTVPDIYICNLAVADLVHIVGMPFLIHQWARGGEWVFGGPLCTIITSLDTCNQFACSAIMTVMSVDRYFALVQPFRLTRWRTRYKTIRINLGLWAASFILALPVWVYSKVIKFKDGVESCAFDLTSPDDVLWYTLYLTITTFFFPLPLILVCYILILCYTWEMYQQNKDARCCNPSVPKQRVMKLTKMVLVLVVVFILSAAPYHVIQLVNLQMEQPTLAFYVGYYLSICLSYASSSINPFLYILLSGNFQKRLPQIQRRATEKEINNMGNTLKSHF
Experiment: Aequorin bioluminescence functional assay, MCH-2R agonist activity
Details: 293-AEQ17 cells expressing human MCH-2R
Where a SMILES comes first, the peptide text is derived from it. Bridges are numbered along the chain shown (N, C = ends). [ ]: non-standard residue; d: D form. The star is where a group is joined. Pentanoyl(5-guanidino) = NC(N)=NCCCCC(=O)*; dNle = CCCC[C@@H](N)C(=O)O; Ava = NCCCCC(=O)O
parameter-measured: MCH-2R Agonist Activation % (%)
Write the number in % without appending the unit.

[
  {
    "compound": "CSCC[C@@H]1NC(=O)[C@@H](NC(=O)CCCCNC(=N)N)CSSC[C@@H](C(N)=O)NC(=O)CCCCNC(=O)CCCCNC(=O)[C@H](Cc2ccc(O)cc2)NC(=O)[C@H](C(C)C)NC(=O)[C@H](CCCNC(=N)N)NC(=O)CNC1=O [SEQ. ID. NO. 23] ({Pentanoyl(5-guanidino)}-CMGRVY[Ava][Ava]C-NH2; disulfide 1-9)",
    "assayed-target": "human MCH-2R (Homo sapiens, UniProt Q969V1)",
    "endpoint-result": 26
  },
  {
    "compound": "CCCC[C@H]1NC(=O)[C@H](CC(C)C)NC(=O)[C@H](CCSC)NC(=O)[C@@H](NC(=O)CCCCNC(=N)N)CSSC[C@@H](C(N)=O)NC(=O)CCCCNC(=O)CCCCNC(=O)[C@H](Cc2ccc(O)cc2)NC(=O)[C@H](C(C)C)NC(=O)[C@H](CCCNC(=N)N)NC1=O [SEQ. ID. NO. 27] ({Pentanoyl(5-guanidino)}-CML[dNle]RVY[Ava][Ava]C-NH2; disulfide 1-10; C-terminus assumed)",
    "assayed-target": "human MCH-2R (Homo sapiens, UniProt Q969V1)",
    "endpoint-result": 91
  }
]

// next entry
## Input // map CSCC[C@@H]1NC(=O)[C@H](NC(=O)[C@H](CCCNC(=N)N)NC(C)=O)CSSC[C@@H](C(N)=O)NC(=O)CCCCNC(=O)CCCCNC(=O)[C@H](Cc2ccc(O)cc2)NC(=O)[C@H](C(C)C)NC(=O)[C@H](CCCNC(=N)N)NC(=O)CNC(=O)[C@H](CC(C)C)NC1=O [SEQ. ID. NO. 24] (Ac-R[dC]MLGRVY[Ava][Ava]C-NH2; disulfide 2-11; C-terminus assumed) to recorded MCH-2R Agonist Activation % (system: human MCH-2R (Homo sapiens, UniProt Q969V1))
## Output 17
